Kindly state IC50 for each of the entries shown.
Test system: COS-7
Assay: Inhibition of transferrin uptake in african green monkey COS7 cells by microscopic TexasRed imaging
Assay type: functional, cell-based
Conditions: Chlorocebus aethiops
Answers are plain numbers, in µM.

Example compounds with recorded IC50:
STRUCTURE_SMILES	REPORTED_ENDPOINT	MEASURE_UNIT	QUANTITATIVE_RESULT
COc1ccc(/C=N/NC(=O)c2cc3ccccc3cc2O)cc1O	IC50	µM	2.6
O=C(N/N=C/c1ccc(O)c(O)c1)c1cc2ccccc2cc1O	IC50	µM	15

State its IC50 on COS-7: `O=C(N/N=C/c1ccc(O)c(O)c1)c1ccc2ccccc2c1`
4

###

// values below are pIC50; system is Dynamin-1 (Homo sapiens)
Answers are plain numbers, as −log10 of the molar value.

COMPOUND	pIC50
O=C(N/N=C/c1ccc(O)c(O)c1)c1cc2ccccc2cc1O [DYNASORE]	4.97

State its pIC50 on Dynamin-1 (Homo sapiens): `O=C(N/N=C/c1ccc(O)c(O)c1)c1ccc2ccccc2c1`
5.29

###

Kindly state inhibition for each of the entries shown.
Target: Dynamin-1 (Homo sapiens) (UniProt Q05193)
Sequence (Q05193 whole entry): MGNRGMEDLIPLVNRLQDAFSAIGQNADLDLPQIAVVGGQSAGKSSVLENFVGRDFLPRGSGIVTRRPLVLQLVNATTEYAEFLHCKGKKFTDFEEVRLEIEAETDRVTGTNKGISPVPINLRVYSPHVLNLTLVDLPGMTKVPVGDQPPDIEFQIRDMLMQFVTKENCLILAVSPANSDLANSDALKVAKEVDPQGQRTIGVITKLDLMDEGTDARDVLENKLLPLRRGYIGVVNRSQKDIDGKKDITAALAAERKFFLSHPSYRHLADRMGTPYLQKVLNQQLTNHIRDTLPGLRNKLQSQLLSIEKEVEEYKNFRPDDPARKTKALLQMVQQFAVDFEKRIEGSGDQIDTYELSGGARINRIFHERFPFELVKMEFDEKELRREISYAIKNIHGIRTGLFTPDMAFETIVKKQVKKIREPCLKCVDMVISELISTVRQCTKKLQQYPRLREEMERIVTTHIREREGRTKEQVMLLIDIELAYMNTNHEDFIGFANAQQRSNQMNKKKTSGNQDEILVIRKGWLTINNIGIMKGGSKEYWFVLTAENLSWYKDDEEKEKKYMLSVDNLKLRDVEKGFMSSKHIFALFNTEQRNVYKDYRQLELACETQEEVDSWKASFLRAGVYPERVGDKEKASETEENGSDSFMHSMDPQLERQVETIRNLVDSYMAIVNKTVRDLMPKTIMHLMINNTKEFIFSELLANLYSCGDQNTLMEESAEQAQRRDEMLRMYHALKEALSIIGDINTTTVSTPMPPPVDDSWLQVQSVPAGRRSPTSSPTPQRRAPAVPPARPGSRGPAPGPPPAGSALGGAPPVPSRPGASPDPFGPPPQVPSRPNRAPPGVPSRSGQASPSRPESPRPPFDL
Assay: Inhibition of GTPase activity of Dynamin 1
Design: concentration or dose not given beside the values
Details: concentration not given here
Give bare numbers, in %.

// each listed compound needs a value for inhibition
1. O=C(NCCc1ccc(O)cc1)c1ccc2ccccc2c1
2. O=C(OP(=O)(N1CCOC1=O)N1CCOC1=O)c1ccc2ccccc2c1
3. O=C(N/N=C/c1ccc(Cl)c(Cl)c1)c1cc2ccccc2cc1O
4. O=C(N/N=C/c1ccc(O)c(O)c1)c1cc2ccccc2cc1O [DYNASORE]
5. O=C(N/N=C/c1ccc(O)c(O)c1)c1ccc2ccccc2c1
6. COc1ccc(/C=N/NC(=O)c2cc3ccccc3cc2O)cc1O
7. Cc1ccc(/C=N/NC(=O)c2ccc3ccccc3c2)cc1C
8. Cc1ccc(/C=N/NC(=O)c2cc3ccccc3cc2O)cc1C

1. 0
2. 0
3. 0
4. 69.8
5. 73.2
6. 74.7
7. 0
8. 0

###

Target: Dynamin-1 (Homo sapiens) (UniProt Q05193)
Assay: Inhibition of GTPase activity of Dynamin 1
Parameters: concentration or dose not given beside the values
Details: concentration not given here
REPORTED_ENDPOINT: inhibition (%)
Answers are plain numbers, in %.

Example compounds with recorded inhibition:
STRUCTURE_SMILES	QUANTITATIVE_RESULT
NCCc1ccc(OC(=O)c2ccc3ccccc3c2)cc1	0
O=C(N/N=C/c1cc(O)ccc1[N+](=O)[O-])c1cc2ccccc2cc1O	0

State its inhibition on Dynamin-1 (Homo sapiens) (UniProt Q05193): `O=C(N/N=C/c1ccc(Cl)c(Cl)c1)c1ccc2ccccc2c1`
0
